What Signal/background was measured for each of the following?
subject of test: T1, MYOF peptide complexed with HLA-A*02:01 on T2 cells (human)
T1 construct: whole, on cells
protocol notes: flow cytometry, peptide-loaded T2 cells;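 further: binding of single-chain Fv antibody constructs, raised in XenoMouse, to peptide-pulsed T2 cells measured by flow cytometry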

What does the data say about its Signal/background? Entry: 18182-H12 (scFv, scFv in bacterial lysate, detected with anti-Flag M2) scFv: EVQLLESGGGLVQPGGSLRLSCAASGFTFSSYAMSWVRQAPGKGLEWVSTISGSGGGTYYADSVKGRFTISRDNSKNTLYLQMNSLRAEDTAVYYCATGKGVHLGFDYWGQGTLVTVSSGGGGSGGGGSGGGGSELMLTQPHSVSVAPGQTARITCGGNNIGSKSVHWYQQKPGQAPVLVVYDDNDRPSGIPERFSGSNFGNTATLIISRVEAGDEADYYCQVWDSSSDHVVFGGGTKLTVL
1.2

What does the data say about its Signal/background? Entry: 18182-E1 (scFv, scFv in bacterial lysate, detected with anti-Flag M2) scFv: EVQLLESGGGLVQPGGSLRLSCAASGFTFSSHAMSWVRQAPGKGLEWVSAISGSGGGTYNADSVKGRFTISRDNSKNTLYLQMNSLRAEDTAAYYCVTGKGVHLGFDYWGQGTLVTVSSGGGGSGGGGSGGGGSELVLTQPPSVSVAPGQTARITCGGNNIGSKSVHWYQQKPGQAPVMVVYDDNDRPSGIPERFSGSNSGNTATLTISRVEAGDEADYYCQVWDSSSDHVVFGGGTKLTVL
0.9

What does the data say about its Signal/background? Entry: 18182-B5 (scFv, scFv in bacterial lysate, detected with anti-Flag M2) scFv: EVQLLESGGGLVQPGGSLRLSCAASGFTFSSHAMSWVRQAPGKGLEWVSAISGSGGGTYYADSVKGRFTISRDNSKNTLYLQMNSLRAEDTAVYYCATGKGVHLGFDYWGQGTLVTVSSGGGGSGGGGSGGGGSELVLTQPPSVSVAPGQTARITCGGNNIGSKSVHWYQQKPGQAPVLVVYDDNDRPSGIPERFSGSNFGNTATLIISRVEAGDEADYYCQVWDSSSDHVVFGGGTKLTVL
1

What does the data say about its Signal/background? Entry: 18182-G2 (scFv, scFv in bacterial lysate, detected with anti-Flag M2) scFv: EVQLLESGGGLVQPGGSLRLSCAASGFTFSSHAMSWVRQAPGKGLEWVSAISGSGGGTYNADSVKGRFTISRDNSKNTLYLQMNSLRAEDTAAYYCVTGKGVHLGFDYWGQGTLVTVSSGGGGSGGGGSGGGGSELVLTQPPSVSVAPGQTARITCGGNNIGSKSVHWYQQKPGQAPVMVVYDDNDRPSGIPERFSGSNSGNTATLTISRVEAGDEADYYCQVWDSSSDHVIFGGGTKLTVL
1

What does the data say about its Signal/background? Entry: 18182-E10 (scFv, scFv in bacterial lysate, detected with anti-Flag M2) scFv: EVQLLESGGGLVQPGGSLRLSCAASGFTFSSHAMSWVRQAPGQGLEWVSSISGSGGGTYYAASVKGRFTISRDNSKNTLYLQMNSLRAEDTAVYYCATGKGVHLNFDYWGQGTLVTVSSGGGGSGGGGSGGGGSELALTQPASASVAPGQTARITCGGNNIGSKSVHWHQQKPGQAPVLVVYDDNDRPSGIPERFSGSNSGNTATLTISRVEAGDEADFYCQVWDSSSDHVVFGGGTKLTVL
0.9

What does the data say about its Signal/background? Entry: 18181-F3 (scFv, scFv in bacterial lysate, detected with anti-Flag M2) scFv: EVQLLESGGGLVQPGGSLRLSCAASGFTFSNAWMSWVRQAPGKGLEWVGRIKGNTYGGTTDYAAPVKGRFTISRDDSKNTLFLQMNSLKTEDTAVYYCTTPSYSGSYYNYFSVMDVWGQGTTVTVSSGGGGSGGGGSGGGGSELVMTQSPSSLSASVGDRVTITCRTSQSISSYLNWYQQKPGRAPKLLIFAASSLQGGVPSRFSGSGSGTDFTLTISSLQPEDFATYYCQQSYSSPFTFGPGTKVEIK
1.1

What does the data say about its Signal/background? Entry: 18179-E1 (scFv, scFv in bacterial lysate, detected with anti-Flag M2) scFv: EVQLLESGGGLVQPGGSLRLSCAASGFTFSNAWMSWVRQAPGKGLEWVGRIKGNTYGGTTDYAAPVKGRFTISRDDSKNTLYLQMNSLKTEDTAVYYCTTPSYSGSYYNYFSVMDVWGQGTTVTVSSGGGGSGGGGSGGGGSELVMTQSPSSLSASVGDRVTITCRTSQSISSYLNWYQQKPGRAPKLLIFAASSLQGGVPSRFSGSGSGTDFTLTISSLQPEDFATYYCQQTYSMPFTFGPGTKVDIK
1

What does the data say about its Signal/background? Entry: 18181-B8 (scFv, scFv in bacterial lysate, detected with anti-Flag M2) scFv: EVQLLESGPGLVKPSQTLSLTCTVSGGSISSGGYYWSWIRQHPGKGLEWIGYISHSGSTYYNPSLKSRVTISVDTSKNQFSLNLTSVTAADTAVYYCAREKMWFGVLNYYYGMDVWGQGTTVTVSSGGGGSGGGGSGGGGSELVMTQTPLSLPVTPGEPASISCRSSQSLLHRNGYNYLDWYLQKPGQSPQLLIYLGSNRASGVPDRFIGSGSGTDFTLEISRVEAEDVGVYYCMQALQTPSFGQGTKVEIK
1

What does the data say about its Signal/background? Entry: 18093-B11 (scFv, scFv in bacterial lysate, detected with anti-Flag M2) scFv: EVQLLESGGGLVKPGGSLRLSCAASGFTFSDYYMSWIRQAPGKGLEWVSYISKSGSTIYYADSVKGRFTISRDNAKNSLYLQMNSLRAEDTAVYYCATYNYGHFDYWGQGTLVTVSSGGGGSGGGGSGGGGSELVLTQPPSVSVAPGQTARITCGGNNIGSKSVHWYQQKPGQAPVLVVYDDSDRPSGIPERFSGSNSGNTATLTISRVEAGDEADYYCQVWDSSSDHHVVFGGGTKLTVL
1.2

What does the data say about its Signal/background? Entry: 18182-E6 (scFv, scFv in bacterial lysate, detected with anti-Flag M2) scFv: EVQLLESGGGLVQPGGSLRLSCAASGFTFSSYAMSWVRQAPGKGLEWVSAISGSGGGTYYADSVKGRFTISRDNSKNTLYLQMNSLRAEDTAVYYCATGKGVHLNFDYWGQGTLVTVSSGGGGSGGGGSGGGGSELVLTQPSSVSVAPGQTARITCGGNNIGSKSVHWYQQKPGQAPVLVVYDDNDRPSGIPERFSGSNFGNTATLIISRVAAGDEADYYCQVWDSSSDHVVFGGGTKLTVL
1
